Test system: PC-3 prostate
assay: NCI tumour cell line growth inhibition, 48 h

{"compound": "C[Se]C(=O)CC1=C2C=C(F)C=CC2/C(=C\\c2ccc(S(C)=O)cc2)C1C (stereo unspecified)", "tested.target": "PC-3 prostate", "GI50": "174 nM"}
{"compound": "O=C(NNS(=O)(=O)c1cc(C(F)(F)F)cc(C(F)(F)F)c1)c1cnn(-c2ccc(Cl)cc2)c1C(F)(F)F", "tested.target": "PC-3 prostate", "GI50": "16400 nM"}
{"compound": "C=C(C)C1/C=C(/C(C)C)CC[C@]2(C)O[C@@H]2CC[C@H](C)CC1=O (stereo partly specified)", "tested.target": "PC-3 prostate", "GI50": "32400 nM"}
{"compound": "COc1ccc(C(O)c2cc3c(N)c(C(=O)Nc4cccc(Br)c4)sc3nc2C)cc1 (stereo unspecified)", "tested.target": "PC-3 prostate", "GI50": "204 nM"}
{"compound": "Oc1ccccc1-n1c(-c2ccccc2)ccc1-c1ccccc1", "tested.target": "PC-3 prostate", "GI50": "2950 nM"}
{"compound": "CC#CC(=O)N1CCC[C@H]1c1nc(-c2ccc(C(=O)Nc3ccccn3)cc2)c2c(N)nccn12", "tested.target": "PC-3 prostate", "GI50": "> 84800 nM"}
{"compound": "NC(CSC(c1ccccc1)(c1ccccc1)c1ccc2ccccc2c1)C(=O)O (stereo unspecified)", "tested.target": "PC-3 prostate", "GI50": "62.8 nM"}
{"compound": "COc1ccc([C@H]2O[C@@H](CO)C[C@]2(O)c2ccc(OC)cc2)cc1", "tested.target": "PC-3 prostate", "GI50": "> 100000 nM"}
{"compound": "COc1cc(C2C(C#N)=C(N)OC3=C2C(=O)c2ccccc2C3=O)cc(OC)c1OC (stereo unspecified)", "tested.target": "PC-3 prostate", "GI50": "577 nM"}
{"compound": "C=C(C)[C@H]1CC/C(C)=C/CCC(C)C(=O)CC/C(CO)=C\\[C@@H]1O (stereo partly specified)", "tested.target": "PC-3 prostate", "GI50": "76300 nM"}
{"compound": "O=[N+]([O-])c1ccc2c(N=Nc3c(O)ccc4ccccc34)c(O)cc(S(=O)(=O)O)c2c1", "tested.target": "PC-3 prostate", "GI50": "34500 nM"}
{"compound": "O=C(/C=C/c1ccco1)Nc1ncc(Cc2ccc(F)cc2)s1", "tested.target": "PC-3 prostate", "GI50": "57.1 nM"}
{"compound": "COc1ccc(/C=C(\\C#N)c2cc3ccccc3n2C)cc1", "tested.target": "PC-3 prostate", "GI50": "448 nM"}
{"compound": "COC(=O)CCC1=C(C)c2cc3[n-]c(cc4nc(cc5[n-]c(cc1n2)c(CCC(=O)OC)c5C)C=C4C)cc3C.[Cd+2]", "tested.target": "PC-3 prostate", "GI50": "4680 nM"}
{"compound": "O=C(CCN1CCCC1)Nc1ccc2c(NCCCc3ccccc3)c3ccccc3nc2c1", "tested.target": "PC-3 prostate", "GI50": "566 nM"}
{"compound": "CCCC[C@@H](COC(=O)N(Cc1cccs1)Cc1cccs1)NC(=O)N[C@@H](CC(=O)OC)c1ccc2c(c1)OCO2", "tested.target": "PC-3 prostate", "GI50": "9090 nM"}

###

Measured TGI, listed per entry.
Test system: UACC-257 melanoma
assay: NCI tumour cell line growth inhibition, 48 h

{"molecule": "O=c1[nH]c(-c2ccc(C(F)(F)F)cc2)nc2c1CSCC2", "TGI": "> 100 µM"}
{"molecule": "Cc1cc(C)c(C(=O)OC(c2ccccc2)C(c2ccccc2)N2CCOCC2)c(C)c1 (centres undefined)", "TGI": "> 100 µM"}
{"molecule": "O=[N+]([O-])c1ccccc1C1N2CCCCC2[C@@H]2c3[nH]c4ccccc4c3CCN12 (some centres undefined)", "TGI": "26.7 µM"}
{"molecule": "FC(F)(F)c1ccc(-c2cnc(Br)nc2NC2CCCCCC2)cc1", "TGI": "> 100 µM"}

###

System: HS 578T breast
assay: NCI tumour cell line growth inhibition, 48 h; in the data active = GI50 below about 0.43 µM; inactive = the rest
Outcomes: YES (active), NO (inactive)

{"compound": "COC(=O)CCC1=C(C)c2cc3[n-]c(cc4nc(cc5[n-]c(cc1n2)c(CCC(=O)OC)c5C)C=C4C)cc3C.[Cd+2]", "group": "NO"}
{"compound": "Oc1ccccc1-n1c(-c2ccccc2)ccc1-c1ccccc1", "group": "NO"}
{"compound": "COc1cc(C2C(C#N)=C(N)OC3=C2C(=O)c2ccccc2C3=O)cc(OC)c1OC (stereo not given)", "group": "YES"}
{"compound": "Cn1ccnc1C(=O)/C=C/c1ccc(C(=O)Nc2nc3ccccc3[nH]2)cc1", "group": "NO"}
{"compound": "O=C(/C=C/c1ccco1)Nc1ncc(Cc2ccc(F)cc2)s1", "group": "YES"}

###

Tested on: OVCAR-3 ovarian
assay: NCI tumour cell line growth inhibition, 48 h
property: log10 TGI (log10 of the value in µM)

{"molecule": "N#Cc1c(C#N)c(SSc2c(C#N)c(C#N)c(N)n2-c2ccccc2)n(-c2ccccc2)c1N", "obs.value": 1.66}
{"molecule": "Cc1cc(C)nc(NS(=O)(=O)c2ccc(NC(=O)c3cccc4cc5ccccc5nc34)cc2)n1", "obs.value": 1.81}
{"molecule": "COc1cc2c(cc1OC)C(Cl)C(c1cc(OC)c(OC)c(OC)c1)=C2Cl (stereo not drawn)", "obs.value": 1.50}
{"molecule": "CC/C(Cl)=N\\OC(=O)Nc1ccc(C#N)cc1", "obs.value": 1.51}
{"molecule": "c1ccc(-c2nc(N3CCNCC3)c3nc(-c4ccccc4)oc3n2)cc1", "obs.value": 0.51}
{"molecule": "O=C(C1OC1c1ccc([N+](=O)[O-])cc1)C12CC3CC(CC(C3)C1)C2 (stereo not drawn)", "obs.value": 1.43}
{"molecule": "Cc1ccc2[nH]c3c(C)c4ccncc4c(C)c3c2c1", "obs.value": 0.51}
{"molecule": "Cn1c(O)c(C(=O)Nc2ccc([N+](=O)[O-])cc2)c(=O)n(C)c1=S", "obs.value": 0.90}
{"molecule": "COC(=O)C1=C(C)NC(C)=C([N+](=O)[O-])C1c1cccc(NO)c1 (stereo not drawn)", "obs.value": 1.29}
{"molecule": "Cn1c(=O)c2[nH]c(COc3ccc(C(C)(C)C)cc3)nc2n(C)c1=O", "obs.value": 1.53}
{"molecule": "CCNCCNc1cc(-c2ccc(F)cc2)c(C#N)c2nc3ccccc3n12", "obs.value": 0.64}
{"molecule": "COc1ccc(/C=C2\\COc3ccc(-c4ccccc4)cc3C2=O)cc1O", "obs.value": 0.70}
{"molecule": "O=C(/C=C/c1ccco1)Nc1ncc(Cc2ccc(F)cc2)s1", "obs.value": -0.85}
{"molecule": "Cc1ccc(N2C(=O)/C(=C3\\Sc4c(nc(C)[nH]c4=O)N3c3ccccc3)SC2=S)cc1", "obs.value": 1.68}
{"molecule": "Cc1cn(C2CC(N=[N+]=[N-])C(CO[Si](C)(C)C(C)(C)C)O2)c(=O)[nH]c1=O (stereo not drawn)", "obs.value": 1.54}
{"molecule": "COc1ccc(/C=C(\\C#N)c2cc3ccccc3n2C)cc1", "obs.value": 0.50}
{"molecule": "CC1=C2C(c3ccccc3)(c3ccccc3)C3C=CC2(C=N3)N(C(=O)NC2CCCCC2)C1=O (stereo not drawn)", "obs.value": 1.45}
{"molecule": "COC(=O)C1(Cc2cccc(Cl)c2)CCCCCCN1C(=O)c1ccccc1 (stereo not drawn)", "obs.value": 1.31}
{"molecule": "C=C(Cl)C(Cl)(CBr)CCC(Cl)C(C)(C)Cl (stereo not drawn)", "obs.value": 0.52}

###

Measured TGI, listed per entry.
Test system: MOLT-4 leukemia
assay: NCI tumour cell line growth inhibition, 48 h

{"molecule": "CSC(=NCCN=C(NS(=O)(=O)c1ccc(Cl)cc1)SC)NS(=O)(=O)c1ccc(Cl)cc1", "TGI": "> 100 µM"}
{"molecule": "Fc1ccc(C(OCCN2CCC3CCC(C2)N3Cc2cc3ccccc3[nH]2)c2ccc(F)cc2)cc1 (stereo unspecified)", "TGI": "4.03 µM"}
{"molecule": "Nc1ncc(Cc2nc3ccccc3s2)s1", "TGI": "> 100 µM"}
{"molecule": "CCOC(=O)C(C[Si](C)(C)C)P(=O)(OCC)OCC (stereo unspecified)", "TGI": "> 100 µM"}
{"molecule": "CCc1cccc(C)c1NC(=O)NS(=O)(=O)c1ccc(C)cc1", "TGI": "> 100 µM"}
{"molecule": "CCN1/C(=C/C(C)=C/c2sc3ccccc3[n+]2CC)Sc2ccccc21", "TGI": "1.15 µM"}

###

Tested on: MOLT-4 leukemia
assay: NCI tumour cell line growth inhibition, 48 h; in the data active = GI50 below about 0.43 µM; inactive = the rest
Outcomes: active, inactive

{"compound": "C=C(C)[C@H]1CC/C(C)=C/CCC(C)C(=O)CC/C(CO)=C\\[C@@H]1O (stereo partly drawn)", "group": "inactive"}
{"compound": "Cn1ccnc1C(=O)/C=C/c1ccc(C(=O)Nc2nc3ccccc3[nH]2)cc1", "group": "inactive"}
{"compound": "Fc1ccc(-c2ncn(C3CCNCC3)c2-c2ccnc(Oc3cccc(F)c3)n2)cc1", "group": "inactive"}
{"compound": "COc1ccc(/C=C2\\N=C3SC=C(N)N3C2=O)cc1", "group": "active"}
{"compound": "C#Cc1ccc(NC(=O)c2ccc(/C=C/C(=O)c3nccn3C)cc2)cc1", "group": "inactive"}
{"compound": "N#Cc1nc(-c2ccccc2)oc1S(=O)(=O)N1CCOCC1", "group": "inactive"}
{"compound": "CCS/C(Nc1ccccc1)=C(\\C#N)C(=O)Nc1ccc(OC)cc1", "group": "inactive"}
{"compound": "Oc1ccccc1-n1c(-c2ccccc2)ccc1-c1ccccc1", "group": "inactive"}
